Assay: qHTS Assay for Inhibitors of Hepatitis C Virus (HCV)
Conditions: Huh7.5.1 HCVcc-Cre infection, luciferase reporter, 44 h; series mostly up to 41.8 µM
The campaign covered roughly 340,000 compounds. About 12,000 (3.5%) were called active. Another 18% or so got no clear call; they are omitted. The call rests on the fitted dose curve; in most records, active means well fitted inhibition curve with a large enough effect; inconclusive means small, poorly fitted or top-dose-only effect, or another doubt; inactive means no such curve, though single readings can be large or run the other way. This excerpt belongs to a sample that is enriched for actives.
A correct response names exactly one class from T = active, F = inactive

Example results:
compound | category
CCN(C(=O)COC(=O)CCC(=O)c1cccs1)C1CCCCC1 | F
O=C(Nc1ccccn1)C1CCN(S(=O)(=O)c2ccccc2)CC1 | F
CN(C)c1ccc(-n2cccc2/C=C2/SC(=Nc3ccc(F)cc3)NC2=O)cc1 | F
Cc1noc(C)c1S(=O)(=O)N1CCCC(C(=O)Nc2nccs2)C1 (configuration not stated) | F
CSc1ncccc1C(=O)Nc1ccc2c(c1)OCO2 | F
O=C(C1CCCO1)N1CCN(C(=S)Nc2cccc(Cl)c2)CC1 (configuration not stated) | F

stdin: Fill in: this test's call for CNc1nc(=O)n(C2CCCO2)cc1C (configuration not stated) is ___
stdout: F

stdin: // param item: `Cn1cc(/C=C/c2nc3ccccc3c(=O)n2-c2cccc([N+](=O)[O-])c2)c2ccccc21` ; yields the recorded call
stdout: F

###

Assay: qHTS Assay for Inhibitors of Hepatitis C Virus (HCV)
Conditions: Huh7.5.1 HCVcc-Cre infection, luciferase reporter, 44 h; series mostly up to 41.8 µM
In all, about 340,000 compounds went through this assay and about 12,000 (3.5%) were called active. Inconclusive results (about 18%) are left out. Calls come from the whole dose curve; as a rule, active = well fitted inhibition curve with a large enough effect; inconclusive = small, poorly fitted or top-dose-only effect, or another doubt; inactive = no such curve, though single readings can be large or run the other way. This is one part of a sample in which actives are shown more often than they occur.
Reply using exactly one outcome from active, inactive

Take a look at these entries with their results.
compound | category
COc1ccc(Cc2nc(-c3ccccn3)no2)cc1OC | inactive
COc1cccc(NS(=O)(=O)c2ccc(-c3coc(C)n3)cc2)c1 | inactive
Cc1ccc(S(=O)(=O)c2cc3c(=O)n4cccc(C)c4nc3n(CCc3ccccc3)c2=N)cc1C | inactive
O=C(CSc1ccccc1)Nc1cccc(S(=O)(=O)N2CCOCC2)c1 | inactive
Cc1ccc(NS(=O)(=O)c2ccc(-c3coc(C)n3)cc2)c(C)c1 | active

stdin: What did this assay record as the result for CC(NC(=O)COC(=O)c1ccc2ccccc2n1)c1ccccc1 (stereo not drawn) ?
stdout: inactive

stdin: Dear all, I need the recorded test outcome for CC(NC(=O)COC(=O)Cn1cc(C(F)(F)F)ccc1=O)c1ccccc1 (stereo not drawn) , thank you.
stdout: inactive

stdin: Each compound tested received a call. Report the one for `O=c1[nH]c(CCl)nc2cc(-c3ccc(Cl)cc3)sc12` .
stdout: active

###

Test: qHTS Assay for Inhibitors of Hepatitis C Virus (HCV)
Conditions: Huh7.5.1 HCVcc-Cre infection, luciferase reporter, 44 h; series mostly up to 41.8 µM
Excerpt: Hepatitis C virus (HCV) infects about 200 million people in the world. Many infected people progress to chronic liver disease including cirrhosis with a risk of developing liver cancer. To date, there is no effective vaccine for hepatitis C. Current therapy based on interferon is only effective in about half of the patients and is associated with significant adverse effects. The fraction of people with HCV who can complete a successful treatment is estimated to be no more than 10 percent. […]
Among all 340,000 compounds or so, about 12,000 (3.5%) were called active. Roughly 18% stayed inconclusive and do not appear here. Calls follow the shape of the dose curve; as a rule, active = well fitted inhibition curve with a large enough effect; inconclusive = small, poorly fitted or top-dose-only effect, or another doubt; inactive = no such curve, though single readings can be large or run the other way. The entries come from a sample that favours actives as a whole.
Your answer must be one of the following: active, inactive

Would you please look over these solved cases?
compound | category
Cc1cc(Cl)ccc1OCCCC(=O)NCc1ccncc1 | inactive
O=C(NCc1cccs1)C1CCN(S(=O)(=O)c2ccc(Cl)cc2)CC1 | inactive
O=C(CNCc1cccs1)Nc1cc(S(=O)(=O)N2CCCC2)ccc1Cl | active

stdin: What outcome does the record of this test show for COCC(C)n1c(SCC(=O)NC2CCCCC2C)nc2ccccc2c1=O (stereo unspecified) ?
stdout: inactive

stdin: Please let me know the test result on file for `CC(=O)NCCC(=O)Nc1cc(S(=O)(=O)N2CCCCC2)ccc1Oc1cccc(C)c1` .
stdout: inactive

stdin: Call for entry `CC/C(=C\c1ccc(Cl)cc1)c1ccncc1` :
stdout: inactive

stdin: Please let me know the test result on file for `O=C(COC(=O)c1ccccn1)NNC(=O)c1ccc([N+](=O)[O-])cc1` .
stdout: inactive
